# Test system: Staph. aureus B4 (pen. resistant)
# TEST SUMMARY: Veterinary bacteria MIC
# Type: cell-based
# CONDITION CONTEXT: Staphylococcus aureus, Diagnostic Sensitivity Test Agar, 18 hours 37° C.
REPORTED METRIC: log10 of MIC (log10 of the value in µg/mL)
A difference of one corresponds to tenfold MIC; all values are log10 with MIC in µg/mL.

1. C/C(=C\C(=O)OCCCCCC=NN(C)C)C[C@@H]1OC[C@H](C[C@@H]2O[C@H]2[C@@H](C)[C@H](C)O)[C@@H](O)[C@H]1O [Example 6, 6-Dimethylhydrazonohexyl monate A]: -1.15
2. C/C(=C\C(=O)OCCCC(=NNC(N)=O)c1ccccc1)C[C@@H]1OC[C@H](C[C@@H]2O[C@H]2[C@@H](C)[C@H](C)O)[C@@H](O)[C@H]1O [Example 2, 4-Phenyl-4-semicarbazonobutyl monate A]: 1.00
3. C/C(=C\C(=O)OCc1ccc(C=NO)o1)C[C@@H]1OC[C@H](C[C@@H]2O[C@H]2[C@@H](C)[C@H](C)O)[C@@H](O)[C@H]1O [Example 7, 5-Hydroxyiminomethylfurfuryl monate A]: 0.10

Record summary for C/C(=C\C(=O)OC1CCC(=NO)CC1)C[C@@H]1OC[C@H](C[C@@H]2O[C@H]2[C@@H](C)[C@H](C)O)[C@@H](O)[C@H]1O (stereo partly shown) [Example 3, 4-Hydroxyiminocyclohexyl monate A] : reported log10 of MIC = 0.40

Record summary for CON=C(CCCOC(=O)/C=C(\C)C[C@@H]1OC[C@H](C[C@@H]2O[C@H]2[C@@H](C)[C@H](C)O)[C@@H](O)[C@H]1O)c1ccccc1 [Example 5, 4-Methoxyimino-4-phenylbutyl monate A] : reported log10 of MIC = -0.20

Record summary for C/C(=C\C(=O)OCCCC(=NO)c1ccccc1)C[C@@H]1OC[C@H](C[C@@H]2O[C@H]2[C@@H](C)[C@H](C)O)[C@@H](O)[C@H]1O [Example 1, 4-Hydroxyimino-4-phenylbutyl monate A] : reported log10 of MIC = -0.20

Record summary for C/C(=C\C(=O)OCCCC(=NO)c1cccs1)C[C@@H]1OC[C@H](C[C@@H]2O[C@H]2[C@@H](C)[C@H](C)O)[C@@H](O)[C@H]1O : reported log10 of MIC = -0.20

----------
# TEST SUMMARY: Mean serum concentrations in neonatal piglets after intramuscular or oral administration
# Assay type: in vivo
# CONDITION CONTEXT: pig, im, 50 mg/kg, 1h
REPORTED METRIC: concentration at 1 h (ng/mL)
State the answer as a number, implicitly in ng/mL.

Record summary for C/C(=C\C(=O)OCCCC(=NO)c1ccccc1)C[C@@H]1OC[C@H](C[C@@H]2O[C@H]2[C@@H](C)[C@H](C)O)[C@@H](O)[C@H]1O [Example 1, 4-Hydroxyimino-4-phenylbutyl monate A] : reported concentration at 1 h = 6600

----------
# Tested on: Staph. aureus 152 (pen. sens)
The entries below are paired with their reported MIC.

1. C/C(=C\C(=O)OCc1ccc(C=NO)o1)C[C@@H]1OC[C@H](C[C@@H]2O[C@H]2[C@@H](C)[C@H](C)O)[C@@H](O)[C@H]1O [Example 7, 5-Hydroxyiminomethylfurfuryl monate A]: 1.25 µg/mL

Record summary for C/C(=C\C(=O)OCCCC(=NO)c1cccs1)C[C@@H]1OC[C@H](C[C@@H]2O[C@H]2[C@@H](C)[C@H](C)O)[C@@H](O)[C@H]1O : reported MIC = 0.312 µg/mL

Record summary for C/C(=C\C(=O)OCCCCCC=NN(C)C)C[C@@H]1OC[C@H](C[C@@H]2O[C@H]2[C@@H](C)[C@H](C)O)[C@@H](O)[C@H]1O [Example 6, 6-Dimethylhydrazonohexyl monate A] : reported MIC = 0.07 µg/mL

Record summary for C/C(=C\C(=O)OCCCC(=NNC(N)=O)c1ccccc1)C[C@@H]1OC[C@H](C[C@@H]2O[C@H]2[C@@H](C)[C@H](C)O)[C@@H](O)[C@H]1O [Example 2, 4-Phenyl-4-semicarbazonobutyl monate A] : reported MIC = 5 µg/mL

----------
# TEST SUMMARY: Serum binding by ultrafiltration
# Assay type: in vitro ADME
# CONDITION CONTEXT: pig, porcine serum, 8 mcg/ml, read-out: % bound to pig serum (converted)
REPORTED METRIC: fraction unbound

Previously resolved entries follow.
1) CON=C(CCCOC(=O)/C=C(\C)C[C@@H]1OC[C@H](C[C@@H]2O[C@H]2[C@@H](C)[C@H](C)O)[C@@H](O)[C@H]1O)c1ccccc1 [Example 5, 4-Methoxyimino-4-phenylbutyl monate A]: < 0.068
2) C/C(=C\C(=O)OC1CCC(=NO)CC1)C[C@@H]1OC[C@H](C[C@@H]2O[C@H]2[C@@H](C)[C@H](C)O)[C@@H](O)[C@H]1O (stereo partly drawn) [Example 3, 4-Hydroxyiminocyclohexyl monate A]: 0.355

Would you kindly look at the next entry?
Record summary for C/C(=C\C(=O)OCCCCCC=NN(C)C)C[C@@H]1OC[C@H](C[C@@H]2O[C@H]2[C@@H](C)[C@H](C)O)[C@@H](O)[C@H]1O [Example 6, 6-Dimethylhydrazonohexyl monate A] : reported fraction unbound = 0.239

----------
# Test system: M. suipneumoniae ATCC 25095
# TEST SUMMARY: Anti-mycoplasmal activity in vitro MIC
# Type: cell-based
# CONDITION CONTEXT: Mesomycoplasma hyopneumoniae, ATCC25095, 144 h; M. suipneumoniae ATCC 25095; Friis broth, 0.9% agarose, 6 days 37° C.; read-out: M.I.C.
The entries below are paired with their reported MIC.
Include the unit after the number when you answer.

1. C/C(=C\C(=O)OCCCCCC=NN(C)C)C[C@@H]1OC[C@H](C[C@@H]2O[C@H]2[C@@H](C)[C@H](C)O)[C@@H](O)[C@H]1O [Example 6, 6-Dimethylhydrazonohexyl monate A]: 0.5 µg/mL

Record summary for C/C(=C\C(=O)OCCCC(=NO)c1ccccc1)C[C@@H]1OC[C@H](C[C@@H]2O[C@H]2[C@@H](C)[C@H](C)O)[C@@H](O)[C@H]1O [Example 1, 4-Hydroxyimino-4-phenylbutyl monate A] : reported MIC = 0.25 µg/mL

Record summary for C/C(=C\C(=O)OCc1ccc(C=NO)o1)C[C@@H]1OC[C@H](C[C@@H]2O[C@H]2[C@@H](C)[C@H](C)O)[C@@H](O)[C@H]1O [Example 7, 5-Hydroxyiminomethylfurfuryl monate A] : reported MIC = 0.5 µg/mL

Record summary for C/C(=C\C(=O)OC1CCC(=NO)CC1)C[C@@H]1OC[C@H](C[C@@H]2O[C@H]2[C@@H](C)[C@H](C)O)[C@@H](O)[C@H]1O (some centres unmarked) [Example 3, 4-Hydroxyiminocyclohexyl monate A] : reported MIC = 0.5 µg/mL

Record summary for CON=C(CCCOC(=O)/C=C(\C)C[C@@H]1OC[C@H](C[C@@H]2O[C@H]2[C@@H](C)[C@H](C)O)[C@@H](O)[C@H]1O)c1ccccc1 [Example 5, 4-Methoxyimino-4-phenylbutyl monate A] : reported MIC = 0.5 µg/mL

----------
# Test system: Strep. suis (Group D) SPS11
# TEST SUMMARY: Veterinary bacteria MIC
# Type: cell-based
# CONDITION CONTEXT: Streptococcus suis; Strep. suis (Group D) SPS11; Diagnostic Sensitivity Test Agar, 18 hours 37° C.; read-out: M.I.C.
# Description: The values were determined using a two fold serial dilutions in Diagnostic Sensitivity Test Agar with an inoculum of 10^4 organisms and incubation for 18 hours at 37° C.
REPORTED METRIC: MIC (µg/mL)
State the answer as a number, implicitly in µg/mL.

1. C/C(=C\C(=O)OCc1ccc(C=NO)o1)C[C@@H]1OC[C@H](C[C@@H]2O[C@H]2[C@@H](C)[C@H](C)O)[C@@H](O)[C@H]1O [Example 7, 5-Hydroxyiminomethylfurfuryl monate A]: 20
2. C/C(=C\C(=O)OCCCC(=NO)c1cccs1)C[C@@H]1OC[C@H](C[C@@H]2O[C@H]2[C@@H](C)[C@H](C)O)[C@@H](O)[C@H]1O [Example 4]: 10
3. C/C(=C\C(=O)OCCCC(=NNC(N)=O)c1ccccc1)C[C@@H]1OC[C@H](C[C@@H]2O[C@H]2[C@@H](C)[C@H](C)O)[C@@H](O)[C@H]1O [Example 2, 4-Phenyl-4-semicarbazonobutyl monate A]: 10
4. C/C(=C\C(=O)OC1CCC(=NO)CC1)C[C@@H]1OC[C@H](C[C@@H]2O[C@H]2[C@@H](C)[C@H](C)O)[C@@H](O)[C@H]1O (some centres unmarked) [Example 3, 4-Hydroxyiminocyclohexyl monate A]: 2.5

Would you kindly look at the next entry?
Record summary for CON=C(CCCOC(=O)/C=C(\C)C[C@@H]1OC[C@H](C[C@@H]2O[C@H]2[C@@H](C)[C@H](C)O)[C@@H](O)[C@H]1O)c1ccccc1 [Example 5, 4-Methoxyimino-4-phenylbutyl monate A] : reported MIC = 20
